EXPERIMENTAL_TARGET: human ether-à-go-go-related gene (hERG) potassium channel (human, UniProt Q12809);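 also: peak tail current of the secondary pulse compared with the same well before compound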
Sequence (Q12809 whole entry, looked up): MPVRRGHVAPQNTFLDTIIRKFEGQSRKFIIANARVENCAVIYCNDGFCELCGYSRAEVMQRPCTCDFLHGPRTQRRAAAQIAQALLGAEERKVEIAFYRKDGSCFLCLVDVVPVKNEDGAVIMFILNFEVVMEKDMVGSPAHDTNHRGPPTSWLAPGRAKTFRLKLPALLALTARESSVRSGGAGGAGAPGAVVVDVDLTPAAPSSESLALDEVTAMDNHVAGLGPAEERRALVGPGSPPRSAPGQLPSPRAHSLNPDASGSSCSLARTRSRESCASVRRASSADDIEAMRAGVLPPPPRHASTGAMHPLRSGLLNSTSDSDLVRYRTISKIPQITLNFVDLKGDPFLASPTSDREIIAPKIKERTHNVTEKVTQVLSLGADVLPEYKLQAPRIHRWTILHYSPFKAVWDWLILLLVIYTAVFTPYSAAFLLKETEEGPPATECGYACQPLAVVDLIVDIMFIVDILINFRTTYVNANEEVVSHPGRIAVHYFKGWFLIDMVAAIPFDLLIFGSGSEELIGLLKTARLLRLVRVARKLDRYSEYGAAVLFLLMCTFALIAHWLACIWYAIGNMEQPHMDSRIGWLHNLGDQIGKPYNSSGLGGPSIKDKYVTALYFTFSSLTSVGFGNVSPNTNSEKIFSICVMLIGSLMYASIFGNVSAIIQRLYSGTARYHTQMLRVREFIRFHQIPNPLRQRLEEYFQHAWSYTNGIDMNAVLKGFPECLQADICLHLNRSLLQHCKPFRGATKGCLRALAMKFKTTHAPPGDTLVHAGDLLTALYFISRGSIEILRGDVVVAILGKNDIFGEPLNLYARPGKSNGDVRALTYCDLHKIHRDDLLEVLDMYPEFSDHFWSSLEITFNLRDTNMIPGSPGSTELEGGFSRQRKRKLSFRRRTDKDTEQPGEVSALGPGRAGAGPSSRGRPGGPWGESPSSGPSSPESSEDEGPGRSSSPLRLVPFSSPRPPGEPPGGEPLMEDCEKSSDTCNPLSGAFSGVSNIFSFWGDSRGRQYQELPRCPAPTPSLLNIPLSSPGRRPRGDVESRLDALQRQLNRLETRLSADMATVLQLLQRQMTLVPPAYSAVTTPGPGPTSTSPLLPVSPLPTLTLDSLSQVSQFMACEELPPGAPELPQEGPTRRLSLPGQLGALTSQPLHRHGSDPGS
PROTOCOL_NOTES: primary screen, population patch clamp on CHO cells stably expressing hERG; higher = less effect of the substance
Hit rate of the full screen: of about 310,000 compounds, about 14,000 (4.5%) showed an effect of 50% or more. The effect is printed as a negative number. What follows is part of a selection rich in strong results, with near analogues and random picks from the rest.
Kindly state hERG current change (%, negative = inhibition) at 10uM for each of the entries shown.
Provide the reading as a plain figure in %.

Report hERG current change (%, negative = inhibition) at 10uM for CCN1CCN(C(CNS(=O)(=O)c2ccc(C)cc2)c2cccnc2)CC1 (centres unmarked) please. -35.9

Now the compound CN1CCN(C(CNS(=O)(=O)c2ccc(Cl)cc2)c2cccnc2)CC1 (centres unmarked) -55.6

Now the compound CCN1CCN(C(CNS(=O)(=O)c2ccccc2)c2ccccc2)CC1 (centres unmarked) -34.8

Now the compound CCN1CCN(C(CNS(=O)(=O)c2ccc(Cl)cc2)c2ccccc2)CC1 (centres unmarked) -69.5

Now the compound CN(C)C(CNS(=O)(=O)c1ccc(Cl)cc1)c1cccnc1 (centres unmarked) 18.2

# credit: paper PMC4336329
